assay: xn = mol fraction of the nth substance listed; settings: 298.15 K, x1 = 0.95
Label scheme for surface tension liquid-gas: lower than 30 mN/m is no, 30 mN/m and above is yes.

Below, 5 molecules whose answers are already recorded.
> print(dat)
                                   molecule  label
1  CCCC(=O)OCCC(C)C [3-methylbutyl butanoate] + CCO     no
2   CCCCCCCC(=O)OCC [ethyl octanoate] + CCO     no
3  CCOC(=O)Cc1ccccc1 [ethyl phenylacetate] + CCO    yes
4  CC(=O)OCCC(C)C [3-methylbutyl ethanoate] + CCO     no
5     CCCCCC(=O)OCC [ethyl hexanoate] + CCO     no

Now turn to the next molecule.
Inquiry: // inclusive: surface tension liquid-gas at least 30 mN/m? input: CCOC(=O)c1ccccc1 [ethyl benzoate] + CCO
Reply text: yes

###

assay: refractive index (Na D-line) (dimensionless); xn = mol fraction of the nth substance listed; conditions: 308.15 K; 100.5 kPa; Liquid; Standard Abbe refractometry; x1 = 0.55
endpoint: refractive index
# respond with the number and nothing more

Solved cases (5 shown):
> print(dat)
                                   compound          endpoint  valuereported
1  CC(=O)OCCC(C)C [3-methylbutyl ethanoate] + CCO  refractive index        1.38404
2     CCCCCC(=O)OCC [ethyl hexanoate] + CCO  refractive index        1.39016
3   CCCCCCCC(=O)OCC [ethyl octanoate] + CCO  refractive index        1.40023
4  CCOC(=O)Cc1ccccc1 [ethyl phenylacetate] + CCO  refractive index        1.45999
5   CCOC(=O)c1ccccc1 [ethyl benzoate] + CCO  refractive index        1.46393

Attention now shifts to the item below.
Inquiry: Query (compound): CCCC(=O)OCCC(C)C [3-methylbutyl butanoate] + CCO ; field requested: refractive index
Reply text: 1.39354

###

Quick list: refractive index per entry.
assay: refractive index (Na D-line) (dimensionless); xn = mol fraction of the nth substance listed; settings: 308.15 K; 100.5 kPa; Liquid; Standard Abbe refractometry; x1 = 0.6
# respond with the number and nothing more

> print(dat)
                                compound          endpoint  valuereported
1  CCCCCC(=O)OCC [ethyl hexanoate] + CCO  refractive index         1.3917

Attention now shifts to the item below.
Inquiry: Query (compound): CCOC(=O)c1ccccc1 [ethyl benzoate] + CCO ; field requested: refractive index
Reply text: 1.46901

###

test: xn = mol fraction of the nth substance listed; settings: 298.15 K, x1 = 0.35
endpoint: surface tension liquid-gas (mN/m)
Give your result in mN/m as a bare value.

> print(dat)
                                   molecule                    endpoint  unitabbreviation  valuereported
1   CCCCCCCC(=O)OCC [ethyl octanoate] + CCO  surface tension liquid-gas              mN/m           24.8
2   CCOC(=O)c1ccccc1 [ethyl benzoate] + CCO  surface tension liquid-gas              mN/m           27.2
3  CC(=O)OCCC(C)C [3-methylbutyl ethanoate] + CCO  surface tension liquid-gas              mN/m             23
4     CCCCCC(=O)OCC [ethyl hexanoate] + CCO  surface tension liquid-gas              mN/m             24

Inquiry: Query (molecule): CCCC(=O)OCCC(C)C [3-methylbutyl butanoate] + CCO ; field requested: surface tension liquid-gas
Reply text: 23.5

Inquiry: Query (molecule): CCOC(=O)Cc1ccccc1 [ethyl phenylacetate] + CCO ; field requested: surface tension liquid-gas
Reply text: 26.7

This collection of values is drawn from the NIST ThermoML archive (doi:10.1021/je0601208).
